assay: Quantitative High-Throughput drug screen in 47 multiple myeloma cell lines against the NCATS MIPE library collection: OPM1_PLB cell viability assay (AID 1918989); conditions: CellTiter-Glo, 48 h; series mostly up to 45.8 µM; note: nearly all actives have a fitted effect of over 40% in size
Inconclusive results are not listed. Active and inactive are the calls of the source. Calls come from the whole dose curve; as a rule, active = well fitted cell-killing curve with a large enough effect; inconclusive = small, poorly fitted or top-dose-only effect, or effect the other way; inactive = no such curve, though single readings can be large or run the other way.
// classify into True = active, False = inactive

[[record]]
compound = "CCN(CC)CCCCNc1ncc2c(n1)N(C)C(=O)N(c1c(Cl)c(OC)cc(OC)c1Cl)C2"
qualitative_label = "True"

[[record]]
compound = "CCN(CC)Cc1ccc2cc(COC(=O)Nc3ccc(C(=O)NO)cc3)ccc2c1"
qualitative_label = "True"

[[record]]
compound = "CC(C)(C)c1nc2c3cc[nH]c(=O)c3c3cc(F)ccc3c2[nH]1"
qualitative_label = "True"


Outcome? C[C@@H]1CC[C@@]2(OC1)OC1CC3C4CC=C5CC(O)CCC5(C)C4CCC3(C)C1[C@@H]2C (stereo partly drawn)
False

Okay, and "NC(=O)c1cccc(-c2cccc(OC(=O)NC3CCCCC3)c2)c1" ?
False

Okay, and COc1cc2c(cc1O)CCC1C2CC[C@@]2(C)C1CC[C@@H]2O (stereo partly drawn) ?
True

Okay, and "O=c1ccn([C@@H]2O[C@H](CO)[C@H](O)[C@@H]2F)c(=O)[nH]1" ?
False

Okay, and "C=CC[C@@H]1C=C(C)C[C@H](C)C[C@H](OC)[C@H]2O[C@@](O)(C(=O)C(=O)N3CCCC[C@H]3C(=O)O[C@H](C(C)=C[C@@H]3CC[C@H](O)[C@H](OC)C3)[C@@H](C)[C@@H](O)CC1=O)[C@@H](C)C[C@@H]2OC" ?
True

Okay, and "C=C(C)[C@@H]1CC[C@]2(C)CC[C@]3(C)[C@H](CC[C@@H]4[C@@]5(C)CC[C@H](O)C(C)(C)[C@H]5CC[C@]43C)[C@@H]12" ?
False

Okay, and "NC(=O)Nc1cc(-c2ccc(CN3CCOCC3)cc2)sc1C(N)=O" ?
True

Okay, and "CCN(CC)CCNC(=O)c1c(C)[nH]c(C=C2C(=O)Nc3ccc(F)cc32)c1C" ?
True

Okay, and "CC1(C)CC(O)CC(C)(C)N1[O]" ?
False

Okay, and "C=CCNC1=C2C[C@@H](C)C[C@H](OC)[C@@H](O)[C@@H](C)C=C(C)[C@H](OC(N)=O)[C@@H](OC)C=CC=C(C)C(=O)NC(=CC1=O)C2=O" ?
True

Okay, and "CCOc1cc2c(c(F)c1OCC)C(=N)N(CC(=O)c1cc(N3CCOCC3)c(OC)c(C(C)(C)C)c1)C2" ?
True

Okay, and "c1ccc(CNc2nc(NCc3ccccc3)c3ccccc3n2)cc1" ?
True

Okay, and "CCCCCCCCCCCCc1ccc(S(=O)(=O)Nc2nncs2)cc1" ?
False

Okay, and "CCOC(=O)N1CCN([N+]([O-])=NOc2ccc([N+](=O)[O-])cc2[N+](=O)[O-])CC1" ?
True

Okay, and CC(N[C@H]1CCCC[C@H]1NC(=O)c1ccc(Cl)cc1)c1cccc2ccccc12 (stereo partly drawn) ?
False
